The entries below come with measured pIC50 values attached.
tgt: full-length human RORγt (Homo sapiens (Human))
Sequence (P51449 other isoform, or with tags, fused parts or gaps): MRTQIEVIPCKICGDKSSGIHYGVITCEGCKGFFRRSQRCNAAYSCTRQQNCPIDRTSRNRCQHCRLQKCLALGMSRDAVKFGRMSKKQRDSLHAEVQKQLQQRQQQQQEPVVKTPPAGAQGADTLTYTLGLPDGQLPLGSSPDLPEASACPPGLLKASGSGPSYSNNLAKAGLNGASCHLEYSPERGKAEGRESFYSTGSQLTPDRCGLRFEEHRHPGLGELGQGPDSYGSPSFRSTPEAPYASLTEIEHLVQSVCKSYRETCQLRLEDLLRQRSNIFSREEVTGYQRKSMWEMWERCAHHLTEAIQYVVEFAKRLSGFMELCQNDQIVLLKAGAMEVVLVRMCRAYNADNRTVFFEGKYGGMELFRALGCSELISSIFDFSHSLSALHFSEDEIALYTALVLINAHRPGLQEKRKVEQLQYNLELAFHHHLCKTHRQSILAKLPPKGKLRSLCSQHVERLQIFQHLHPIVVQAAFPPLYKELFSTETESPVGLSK
procedure details: RORγt (full-length human) reporter assay, conditions A or B, HEK293T cells
Type: cell-based
study conditions: RORγt (FL) Reporter Assay A or B, IC50, HEK293T cells
pIC50: −log10 of the molar value.

# molecule, qualifying sign, pIC50
rows = [
    ("COCCn1nc(C(=O)NC[C@H]2CC[C@H](S(C)(=O)=O)CC2)c(Cl)c1-c1ccc(CC(C)(C)C(F)(F)F)cc1OC(F)F", "=", 8.70),
    ("CCn1nc(C(=O)NC[C@H]2CC[C@H](S(C)(=O)=O)CC2)c(Cl)c1-c1ccc(OCC(C)(F)F)cc1OC", "=", 7.08),
    ("CCn1nc(C(=O)NC[C@]2(O)CC[C@@H](S(C)(=O)=O)CC2)c(Cl)c1-c1ccc(CC(C)(C)C(F)(F)F)cc1C(F)(F)F", "=", 8.48),
    ("CCn1nc(C(=O)NC[C@H]2CC[C@H](S(C)(=O)=O)C[C@@H]2O)c(Cl)c1-c1ccc(CC(C)(C)C(F)(F)F)cc1OC(F)F (single isomer, unassigned)", "=", 8.44),
    ("CCn1nc(C(=O)NC[C@H]2CC[C@H](S(C)(=O)=O)CC2)c(C#N)c1-c1ccc(CCC(F)(F)F)cc1OC", "=", 6.64),
    ("CCn1nc(C(=O)NC[C@H]2CC[C@H](S(C)(=O)=O)CC2)c(Cl)c1-c1ccc(NCC(F)(F)F)cc1OC", "=", 6.92),
    ("COc1cc(N[C@H](C)C(F)(F)F)ccc1-c1c(Cl)c(C(=O)NC[C@]2(O)CC[C@@H](S(C)(=O)=O)CC2)nn1CC(C)C", "=", 7.21),
    ("CCn1nc(C(=O)NC[C@]2(O)CC[C@@H](S(C)(=O)=O)CC2)c(Cl)c1-c1ccc(CCC(C)C)cc1OC", "=", 7.60),
    ("CCn1nc(C(=O)NC[C@]2(O)CC[C@@H](S(C)(=O)=O)CC2)c(C)c1-c1ccc(CCC(F)(F)F)cc1OC", "=", 7.03),
    ("CCCn1nc(C(=O)NC[C@]2(O)CC[C@@H](S(C)(=O)=O)CC2)c(Cl)c1-c1ccc(C[C@@H](C)C(F)(F)F)cc1OC (single isomer, unassigned)", "=", 8.05),
    ("CCn1nc(C(=O)NC[C@]2(O)CC[C@@H](S(C)(=O)=O)CC2)c(Cl)c1-c1ccc(CCC(F)(F)F)cc1OC(F)(F)F", "<", 5.70),
    ("CCn1nc(C(=O)NC[C@H]2CC[C@H](S(C)(=O)=O)CC2)c(Cl)c1-c1ccc(CCC(F)(F)F)cc1F", "=", 7.16),
    ("CCn1nc(C(=O)NC[C@H]2CC[C@H](S(N)(=O)=O)CC2)c(C)c1-c1ccc(C[C@H](C)C(F)(F)F)cc1OC(F)F (single isomer, unassigned)", "=", 7.72),
    ("CCn1nc(C(=O)NC[C@@]2(O)CC[C@@H](S(C)(=O)=O)C[C@@H]2O)c(Cl)c1-c1ccc(CC(C)(C)C(F)(F)F)cc1OC(F)F (single isomer, unassigned)", "=", 7.21),
    ("CCn1nc(C(=O)NC[C@H]2CC[C@H](S(C)(=O)=O)CC2)c(Cl)c1-c1c(F)cc(N[C@H](C)C(F)(F)F)cc1F", "=", 7.70),
    ("Cc1c(C(=O)NC[C@]2(O)CC[C@@H](S(C)(=O)=O)CC2)nn(C)c1-c1ccc(CC(C)(C)C(F)(F)F)cc1OC(F)F", "=", 7.89),
    ("CCn1nc(C(=O)NC[C@@H]2CC[C@H](S(C)(=O)=O)CN2)c(Cl)c1-c1ccc(CC(C)(C)C(F)(F)F)cc1OC(F)F (stereo in doubt)", "=", 7.04),
    ("CCn1nc(C(=O)NC[C@]2(C(=O)O)CC[C@@H](S(C)(=O)=O)CC2)c(Cl)c1-c1ccc(N[C@H](C)C(F)(F)F)cc1OC (relative stereo)", "=", 6.14),
    ("CCn1nc(C(=O)NC[C@]2(O)CC[C@@H](S(C)(=O)=O)CC2)c(C)c1-c1ccc(CCCC(F)(F)F)cc1OC(F)F", "=", 8.06),
    ("CCn1nc(C(=O)NC[C@]2(O)CC[C@@H](S(C)(=O)=O)CC2)c(Cl)c1-c1ccc(C(=O)C(C)(C)C(F)(F)F)cc1OC(F)F", "=", 7.89),
    ("Cc1c(C(=O)NC[C@]2(O)CC[C@@H](S(C)(=O)=O)CC2)nn(CC(C)(C)O)c1-c1ccc(CC(C)(C)C(F)(F)F)cc1OC(F)F", "=", 7.82),
    ("CCn1nc(C(=O)NC[C@]2(O)CC[C@@H](S(C)(=O)=O)CC2)c(Cl)c1-c1ccc(CC(C)(C)C(F)(F)F)cc1Cl", "=", 8.18),
    ("CCn1nc(C(=O)NC[C@H]2CC[C@H](S(C)(=O)=O)CC2)c(Cl)c1-c1ccc(OCC2(C)CC2)cc1OC", "=", 7.25),
]
